assay: Lipophilicity, logD of the compound by shake flask method; format: physicochemical; settings: octanol/water
RECORDED METRIC: logD
Give only the figure.

Fill in: logD of "O=C(c1ccc2c(ccn2-c2ccc(F)cc2)c1)N1CC(N2CCN(c3ncccn3)CC2)C1" is ___
3.68

Fill in: logD of "O=C(c1ccc2c(ccn2-c2ccc(F)cc2)c1)N1CC(N2CCN(C(=O)c3nccs3)CC2)C1" is ___
3.28

====

For each entry below, report its remaining at 0.5 h value.
assay: Metabolic stability of the compound in iv dosed Sprague-Dawley rat plasma assessed as parent compound remaining measured after 30 mins by radio-HPLC analysis; assay type: ADME, organism-based; conditions: read-out: Stability
A number alone suffices; assume %.

Fill in: remaining at 0.5 h of "O=C(c1ccc2c(ccn2-c2ccc([18F])cc2)c1)N1CC(N2CCN(c3ncccn3)CC2)C1" is ___
53

Fill in: remaining at 0.5 h of "O=C(c1ccc2c(ccn2-c2ccc([18F])cc2)c1)N1CC(N2CCN(C(=O)c3nccs3)CC2)C1" is ___
81

====

test: Metabolic stability of the compound in iv dosed Sprague-Dawley rat brain assessed as parent compound remaining measured after 60 mins by radio-HPLC analysis; assay type: ADME, organism-based; details: read-out: Stability
RECORDED METRIC: remaining at 1 h (%)
A number alone suffices; assume %.

Fill in: remaining at 1 h of "O=C(c1ccc2c(ccn2-c2ccc([18F])cc2)c1)N1CC(N2CCN(c3ncccn3)CC2)C1" is ___
98

Fill in: remaining at 1 h of "O=C(c1ccc2c(ccn2-c2ccc([18F])cc2)c1)N1CC(N2CCN(C(=O)c3nccs3)CC2)C1" is ___
94
